// data source = PubChem BioAssay AID1963847

# Test system: 415267-285-R-J2-PDC complex spheroid viability
# experimental protocol: Anticancer human tumor 415267-285-R-J2-PDC patient-derived breast carcinoma cell line growth inhibition [POLQ]
# reported conditions: second compound 10 µM; first compound 0.00316 µM; hits give low values
Kindly apply the following: Criterion met if viability, T/C is less than 90%, Criterion not met in every other case.

Record Cn1ncnc1[C@H]1c2n[nH]c(=O)c3cc(F)cc(c23)N[C@@H]1c1ccc(F)cc1 + Nc1ccc(C#CCN(C(=O)Cc2ncc(C(F)(F)F)cc2C(F)(F)F)c2ccc(F)cc2)nn1 : is its viability, T/C strictly below 90%? Criterion not met

Would you kindly verify if viability, T/C of CC[C@@]1(O)C(=O)OCc2c1cc1n(c2=O)Cc2cc3c(CN(C)C)c(O)ccc3nc2-1 + COC1C(OC(N)=O)C(O)C(Oc2ccc3c(O)c(NC(=O)c4ccc(O)c(CC=C(C)C)c4)c(=O)oc3c2C)OC1(C)C is strictly less than 90%? Criterion not met

hey, is viability, T/C for COc1cccc(OCCCN)c1-c1cc(Nc2cnc(C#N)cn2)n[nH]1 + COC1C(OC(N)=O)C(O)C(Oc2ccc3c(O)c(NC(=O)c4ccc(O)c(CC=C(C)C)c4)c(=O)oc3c2C)OC1(C)C lower than 90% or not? Criterion met

Please state whether viability, T/C is below 90% for C=CCn1c(=O)c2cnc(Nc3ccc(N4CCN(C)CC4)cc3)nc2n1-c1cccc(C(C)(C)O)n1 + Nc1ccc(C#CCN(C(=O)Cc2ncc(C(F)(F)F)cc2C(F)(F)F)c2ccc(F)cc2)nn1 Criterion not met

Strictly below 90%: is that where viability, T/C of Cn1ncnc1[C@H]1c2n[nH]c(=O)c3cc(F)cc(c23)N[C@@H]1c1ccc(F)cc1 + Cc1cccc(N(C)C(=O)C2C(O)CCN2c2nc(C)cc(C(F)(F)F)c2C#N)c1 sits? Criterion not met

###

# Test system: 415267-285-R-J2-PDC complex spheroid viability
# experimental protocol: Anticancer human tumor 415267-285-R-J2-PDC cell line growth inhibition [POLQ];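 note: luminescence used as stand-in measure of viable cells; spheroids exposed to compounds for one week before readout; 100% = DMSO vehicle control viability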
# reported conditions: second compound 0.316 µM; first compound 0.0316 µM; hits give low values
endpoint: viability, T/C (%)
Your answer should be a plain number; it is taken to be in %.

Reported viability, T/C for COc1cccc(OCCCN)c1-c1cc(Nc2cnc(C#N)cn2)n[nH]1 + COC1C(OC(N)=O)C(O)C(Oc2ccc3c(O)c(NC(=O)c4ccc(O)c(CC=C(C)C)c4)c(=O)oc3c2C)OC1(C)C : what is it? 8.41

So what's the measured viability, T/C for this one? CC1COCCN1c1cc(-c2ccnn2C)c2ccnc(-c3ccn[nH]3)c2n1 (stereo not drawn) + Cc1cccc(N(C)C(=O)C2C(O)CCN2c2nc(C)cc(C(F)(F)F)c2C#N)c1 47.2

Give its viability, T/C value. Item: CCc1cc2c(N3CCc4c(cc(Cn5ccnc5)cc4-c4cn(C)nc4C(F)(F)F)C3=O)ccnc2c(OC)n1 + Cc1cccc(N(C)C(=O)C2C(O)CCN2c2nc(C)cc(C(F)(F)F)c2C#N)c1 105

###

# Tested on: 415267-285-R-J2-PDC complex spheroid viability
# experimental protocol: Anticancer human tumor 415267-285-R-J2-PDC cell line growth inhibition [POLQ];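 note: luminescence used as stand-in measure of viable cells; spheroids exposed to compounds for one week before readout; 100% = DMSO vehicle control viability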
# reported conditions: second compound 10 µM; first compound 0.00316 µM; hits give low values
endpoint: viability, T/C (%)
Give the value in % but do not write % after it.

compound="CC[C@@]1(O)C(=O)OCc2c1cc1n(c2=O)Cc2cc3c(CN(C)C)c(O)ccc3nc2-1 + Nc1ccc(C#CCN(C(=O)Cc2ncc(C(F)(F)F)cc2C(F)(F)F)c2ccc(F)cc2)nn1" experimental_system="415267-285-R-J2-PDC complex spheroid viability" endpoint="viability, T/C" reading_unit=% test_value=98.9
compound="CCc1c2c(nc3ccc(O)cc13)-c1cc3c(c(=O)n1C2)COC(=O)[C@]3(O)CC + COC1C(OC(N)=O)C(O)C(Oc2ccc3c(O)c(NC(=O)c4ccc(O)c(CC=C(C)C)c4)c(=O)oc3c2C)OC1(C)C" experimental_system="415267-285-R-J2-PDC complex spheroid viability" endpoint="viability, T/C" reading_unit=% test_value=40.3
compound="C=CCn1c(=O)c2cnc(Nc3ccc(N4CCN(C)CC4)cc3)nc2n1-c1cccc(C(C)(C)O)n1 + Cc1cccc(N(C)C(=O)C2C(O)CCN2c2nc(C)cc(C(F)(F)F)c2C#N)c1" experimental_system="415267-285-R-J2-PDC complex spheroid viability" endpoint="viability, T/C" reading_unit=% test_value=108

Fill in: viability, T/C of CC[C@@]1(O)C(=O)OCc2c1cc1n(c2=O)Cc2cc3c(CN(C)C)c(O)ccc3nc2-1 + Cc1cccc(N(C)C(=O)C2C(O)CCN2c2nc(C)cc(C(F)(F)F)c2C#N)c1 is ___ 104

Fill in the blank: the reported viability, T/C of Cn1ncnc1[C@H]1c2n[nH]c(=O)c3cc(F)cc(c23)N[C@@H]1c1ccc(F)cc1 + COC1C(OC(N)=O)C(O)C(Oc2ccc3c(O)c(NC(=O)c4ccc(O)c(CC=C(C)C)c4)c(=O)oc3c2C)OC1(C)C is ____. 101

###

# System: 415267-285-R-J2-PDC complex spheroid viability
# experimental protocol: Anticancer human tumor 415267-285-R-J2-PDC cell line growth inhibition [POLQ]; active means viability on the fitted dose curve at most 10% of control; inactive means the rest;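 note: luminescence used as stand-in measure of viable cells; spheroids exposed to compounds for one week before readout; 100% = DMSO vehicle control viability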
# reported conditions: second compound 3.16 µM; first compound 3.16 µM
Field 'call' accepts active, inactive

Here's what some known entries look like.
compound="CC1COCCN1c1cc(C2(S(C)(=N)=O)CC2)nc(-c2ccnc3[nH]ccc23)n1 (stereo unspecified) + Nc1ccc(C#CCN(C(=O)Cc2ncc(C(F)(F)F)cc2C(F)(F)F)c2ccc(F)cc2)nn1" answer_label=active
compound="CNCc1ccc(-c2[nH]c3cc(F)cc4c3c2CCNC4=O)cc1 + Nc1ccc(C#CCN(C(=O)Cc2ncc(C(F)(F)F)cc2C(F)(F)F)c2ccc(F)cc2)nn1" answer_label=inactive

Each compound tested received a call. Report the one for COc1cc(C2c3cc4c(cc3C(OC3OC5COC(C)OC5C(O)C3O)C3COC(=O)C23)OCO4)cc(OC)c1O (stereo unspecified) + Cc1cccc(N(C)C(=O)C2C(O)CCN2c2nc(C)cc(C(F)(F)F)c2C#N)c1 . active

Tell me the assay call for O=c1[nH]cc(F)c(=O)[nH]1 + COC1C(OC(N)=O)C(O)C(Oc2ccc3c(O)c(NC(=O)c4ccc(O)c(CC=C(C)C)c4)c(=O)oc3c2C)OC1(C)C please. inactive

Check the results log: what was the call for CCCS(=O)(=O)Nc1ccc(F)c(C(=O)c2c[nH]c3ncc(-c4ccc(Cl)cc4)cc23)c1F + COC1C(OC(N)=O)C(O)C(Oc2ccc3c(O)c(NC(=O)c4ccc(O)c(CC=C(C)C)c4)c(=O)oc3c2C)OC1(C)C ? inactive

I would be grateful if you could indicate the recorded call for CC(C)n1c(=O)n(C)c2cnc3cc(F)c(-c4ccc(OCCCN5CCCCC5)nc4)cc3c21 + Nc1ccc(C#CCN(C(=O)Cc2ncc(C(F)(F)F)cc2C(F)(F)F)c2ccc(F)cc2)nn1 . inactive

What did the test return for O=c1[nH]cc(F)c(=O)[nH]1 + Cc1cccc(N(C)C(=O)C2C(O)CCN2c2nc(C)cc(C(F)(F)F)c2C#N)c1 ? inactive

Each compound tested received a call. Report the one for CC1COCCN1c1cc(-c2ccnn2C)c2ccnc(-c3ccn[nH]3)c2n1 (stereo unspecified) + Cc1cccc(N(C)C(=O)C2C(O)CCN2c2nc(C)cc(C(F)(F)F)c2C#N)c1 . active

Check the results log: what was the call for CCc1cc2c(N3CCc4c(cc(Cn5ccnc5)cc4-c4cn(C)nc4C(F)(F)F)C3=O)ccnc2c(OC)n1 + Cc1cccc(N(C)C(=O)C2C(O)CCN2c2nc(C)cc(C(F)(F)F)c2C#N)c1 ? inactive

// return assay outcome for CC1COCCN1c1cc(C2(S(C)(=N)=O)CC2)nc(-c2ccnc3[nH]ccc23)n1 (stereo unspecified) + Cc1cccc(N(C)C(=O)C2C(O)CCN2c2nc(C)cc(C(F)(F)F)c2C#N)c1 active

Recorded test call requested for Nc1ccn(C2OC(CO)C(O)C2(F)F)c(=O)n1 (stereo unspecified) + Nc1ccc(C#CCN(C(=O)Cc2ncc(C(F)(F)F)cc2C(F)(F)F)c2ccc(F)cc2)nn1 active

###

# System: 415267-285-R-J2-PDC complex spheroid viability
# experimental protocol: Anticancer human tumor 415267-285-R-J2-PDC cell line growth inhibition [POLQ];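 note: luminescence used as stand-in measure of viable cells; spheroids exposed to compounds for one week before readout; 100% = DMSO vehicle control viability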
# reported conditions: second compound 0.316 µM; first compound 1 µM; hits give low values
endpoint: viability, T/C (%)
Give the value in % but do not write % after it.

compound="CNCc1ccc(-c2[nH]c3cc(F)cc4c3c2CCNC4=O)cc1 + COC1C(OC(N)=O)C(O)C(Oc2ccc3c(O)c(NC(=O)c4ccc(O)c(CC=C(C)C)c4)c(=O)oc3c2C)OC1(C)C" reading_unit=% test_value=114

Which viability, T/C value is on record for COc1cc2cc(C(=O)CCC(=O)O)sc2cc1OC + Cc1cccc(N(C)C(=O)C2C(O)CCN2c2nc(C)cc(C(F)(F)F)c2C#N)c1 ? 104
